- TEST: yeast display, Sf9 membrane polyspecificity reagent, FACS + sequencing; frameworks hold sequencing errors
RECORDED METRIC: polyreactivity (PSR sort gate)

{"columns": ["RECORD SEQUENCE", "polyreactivity (PSR sort gate)"],
 "data": [
  ["QVQLVESGGGLVQAGGSLRLSSAASGIIFSTYAMGWYRQAPGKERELVAAITSTGSTNYADSVKGRFTISRDNAKNTVYFQMNSLKPEDTAVYYCNAALNVSGHYPNDYWGQGTQVTVSS", "low polyreactivity"],
  ["QVQLEESGGGLVQAGGSLRLSCAASGFIIHLYGMGWYRQAPGKERELVAAISSGGRTYYADSVKGRFTISRDNAKNTVDLQMNSMIPEVTAVSYSAVFVAYLYSYYYWGQGTQVTVSS", "low polyreactivity"],
  ["QVQLVESGGGLVQAGGSLRLSCAASGSTFDTYAMGWYRQAPGKERELVAAISSGGSTNYADSVKGRFTISRDNAKNTVYLQMNSLKPEDTAVYYCADSYKSVFPVYGTLDEYWGQGTQVTVSS", "low polyreactivity"],
  ["QVQLVESGGGLVQAGGSLRLSCAASGRIFGRYVMGWYRQAPGKERELVAVITGGGTRTYYADSVKGRFTISRDNAKNTVYLQMNSLKPEDTAVYYCAAPYRPDVDYWGQGTQVTVSS", "high polyreactivity"],
  ["QVQLVESGGGLVQAGGSLRLSCAASGSTFDRYGMGWYRQAPGKERELVARITSSGASTYYADSVKGRFTISRDNAMNTVYLQMNSQKPEDTAVYYCAADEGYPGDGDYWGQGTQVTVSS", "low polyreactivity"],
  ["QVQLVESGGGLVQAGGSLRLSCAASGRIIVLYAMGWYRQAPGKERELVASIRSGGSTNYADSVKGRFTISRDNAKNTVYLQMNSLKPEDTAVYYCAARPDHKRYDYWGQGTQVTVSS", "low polyreactivity"]
]}

For QVQLVESGGGLVQAGGSLRLSCAASGNTFGPYDMGWYRQAPGKERELVAGITSGGSTYYADSVKGRFTISRDNAKNTVYLQMNSLKPEDTAVYYCAADYYLWVYWYDYWGQGTQVTVSS , write its polyreactivity (PSR sort gate).
high polyreactivity

For QVHHVESVGGLVQAGGILRLSSAASGRTFDRYAMGWYRQEPGKERELVAAISSGGSTYYADSVKGRFTISRDNAKNTVYLQMNSLKPEDTADYYCNAGKTFDFRDGVGYDHWGQGTQVTVSS , write its polyreactivity (PSR sort gate).
low polyreactivity

For QVQLVESGGGLVQAGGSLRLSCAASGRIFQYYAMGWYRQAPGKERELVAAITRSGGRTYYADSVKGRFTISRDNAKNTVYLQMYSLKPEDTAVYYCAASQRYSVIYYGFSEYDYWGQGTQVTVSS , write its polyreactivity (PSR sort gate).
high polyreactivity

For QVQLVESGGGLVQAGGSLRLSCAASGRTFVVKAMGWYRQAPGKERELVAAITRRGGITYYADSVKGRITISRDNAKNTVYLQMNSLKPEDTAVSYCAADRSYYPDTRTTSGYNYWGQGTQVTVSS , write its polyreactivity (PSR sort gate).
low polyreactivity

For QVQLVESGGGLVQAVGSLRLSCAASGLTFYSNAMGWYRQPHGKERELVATISQDGGRTYADSVKGRFTISRDNAKNTVYLQMNSLKPEDTAVYYCAADYSGNYDFGYWGQGTQVTVSS , write its polyreactivity (PSR sort gate).
low polyreactivity

For QVQHVESGGGLVQAGGSLRLSCAASGFTFPGYAMGWYRQAPGKERELVAAISSSGGRTNYADSVKGRFTISRDNAKNTVYLQMNSLKPEDTAVYYCKAVRTVRSYLQLTRHLVYWGQGTQVTVSS , write its polyreactivity (PSR sort gate).
high polyreactivity

For QVQRVESGGGLVQAGCSLLLSCASSGNIFTRNAMGGYRHAPGKEREWVAAISTSGGRTYYADSVKGRFTISRDNAKNTVYLQMYSLKPEDTAVYYCAADYLSGTELYYWGQGTQVTVSS , write its polyreactivity (PSR sort gate).
high polyreactivity

----------
- TEST: yeast display, Sf9 membrane polyspecificity reagent, FACS + sequencing; frameworks hold sequencing errors
RECORDED METRIC: polyreactivity (PSR sort gate)

{"columns": ["RECORD SEQUENCE", "polyreactivity (PSR sort gate)"],
 "data": [
  ["QVQLVESGGGLVQAGGSLRLSCAASGRIFYINAMGWYRQAPGKEWELVAGITRSGGSTYYADSVKGRFTISRDNAKNTVYLQMNSLKPEDTAVYYCNAGRYARQHSRYDYWGQGTQVTVSS", "high polyreactivity"],
  ["QVQLVESGGGLVQAGGSLRLSCAASGSIFHYYAMGWYRQAPGKERELVAAISSVGSTYYADSVKGRFTISRDNAKNTVYLQINSLKPEDTAVYYCAAEAYAKRYVDRYSWYYYWGQGTQVTVSS", "high polyreactivity"],
  ["QVQLIESGGGLVQAGGSLRLSCAASGRTFGRYTMGWYRQAPGKERELVADISGTGGRTYYSDSVKGRFTISRDNAKNTVYLQMNSLKPEDTAVYYCNAVLHRRFDYWGQGTQVTVSS", "high polyreactivity"],
  ["QVQLVESGGGLVQAGGSLRLSCAASGSIFGYYAMGWYRQAPGKERELVAAIWRGDNTYYADSVKGRFTISRDNAKNTVYLQMNSLKPEDTAVYYCAARYWSRRIFREGYWGQGTQVTVSS", "low polyreactivity"]
]}

For QFHLVESVGGLFQAGGSLRLSSAASGRNFSIYAMGWYRQAPGKERELVAAISWSGGRTYYADSVKGRFTISRDTAKNTVYLQMNSLKPEDTAVYYCNAENGWADYYRSDYWGQGTQVTVSS , write its polyreactivity (PSR sort gate).
high polyreactivity

For QVQHVESGGGLVQAGGSLRLSCAASGRTYGYYAMGWYRQAPGKERELVAAITRTGGSTHYADSVKGRFTISRDNAKNTVYLQMNSLKPEDTAVYYFARTSRHVRYDYWGEGTQVTVSS , write its polyreactivity (PSR sort gate).
low polyreactivity

For QVQLVESGGGLVQAGGSLRLSCAASGSTFTGNAMGWYSQAPGKERELVAAISRSGGRTYYADSVKGRFTISRDNAKNTVYLQMNSLKPEDTAVYYCNAVRNRGQRTAFDYWGQGTQVTVSS , write its polyreactivity (PSR sort gate).
high polyreactivity

For QVQLVESGGGLVQAGGSLRLSCAASGLIFRTYTMGWYRQAPGKERELVATITRRCGTTYYADSVKGRFTISRDNAKNTVYLQMNSLKPEDTAVYYFAKSPYYTWKYDYWGQGTQVTVSS , write its polyreactivity (PSR sort gate).
high polyreactivity

For QVQLVESGGGLVQAGGSLRLSCAASGLTFYGNAMGWYRQAPGKERELVADISLSGGRTFYADSVKGRFTISRDNAKNTVYLQMNSLKPEDTAVYYCAAVWRTGWYYEYYHWGQGTQVTVSS , write its polyreactivity (PSR sort gate).
low polyreactivity

For QVQLVESGGGLVQAGGSLRLSCAASGYIFYYYAMGWYRQAPGKERELVAAINRSGTSTYYADSVKGRFTISRDNAKNTVYLQMNSLKPEDTAVYYCAAVAGNKLYYWGQGTQVTVSS , write its polyreactivity (PSR sort gate).
high polyreactivity

For QVQLVESGGGLVQAGGSHRLSCAASGSTFLNNAMGWYRQAPGKERELVATITSGGITNYADSVKGRFTISRDNAKNTVYLQMNSLKPEDTAVYYCNGETWGFTYYYWGQGTQVTVSS , write its polyreactivity (PSR sort gate).
low polyreactivity

----------
- TEST: yeast display, Sf9 membrane polyspecificity reagent, FACS + sequencing; frameworks hold sequencing errors
RECORDED METRIC: polyreactivity (PSR sort gate)

{"columns": ["RECORD SEQUENCE", "polyreactivity (PSR sort gate)"],
 "data": [
  ["QVQLVESGGGLVQAGGSLRLSCAASGSIFAYYAMGWYRQAPGKERELVAAISSGGGTYYADSVKGRFTISRDNAKNTVYLQMNSLKPEDTAVYYCARRYRAHYQYLYDYWGQGTQVSVSS", "low polyreactivity"],
  ["QVQLVESGGGLVQAGGSLRLSCAASGFIFRYNAMGWYRQAPGKERELVAAITSNGGRTYYADSVKGRFTISRDNAKNTVYLQMNSLKPEDTAVYYCNALGRTYPAYQDDYWGQGTQVTVSS", "high polyreactivity"],
  ["QVQHVESGGGLVQAGGSLRLSCAASGGTFYGYAMGCYRQAPGKERELVAVITYSGGSTYYADSVKGRFTISRDNAKNTVYLQMYSLKPEDTAVYYCAADVKYGYDWGQGTQVTVSS", "high polyreactivity"],
  ["QVQLVESGGGLVQAGGRLRLSCAASGTTFFLYAMGWYRQAPGKERELVASISDGSSTNYADSVKVRFTISRDNAKNTVYLQMNSLKPEDTAVYYCAADFERRRYDYWGQGTQVTVSS", "low polyreactivity"],
  ["QVQLVESGGGLVQAGGSLRLSCAASGRIYRYYAMGWYRQPPAKERELVAAIRRGGSTSYADSVKGRFTISRDNAKNTVYLQMNSLKPEDTAVYYCAATQYYRGYDYWGQGTQVTVSS", "high polyreactivity"],
  ["QVQLVESGGGLVQAGGSLRLSCAASGSTYGYTMGWYRQAPGKERELVADITSGGTTNYADSVKGRFTISRDNAKNTVYLQMNSLKPEDTAVYYCATRGAEWGWLGSIFNPFDYWGQGTQVTVSS", "low polyreactivity"]
]}

Now, please, on to the next sequence.
For QVQLVESGGGLVQAGGSLRLSCAASGRIFVKYSMGWYRQAPGKERELVAAISKSGGSTYYADSVKGRFTISRDNAKNTVYLQMNSLKPEDTAVYYCATRSRDQYSVSYRLDYWGQGTQVTVSS , write its polyreactivity (PSR sort gate).
low polyreactivity

The reported measurements were obtained from the nanobody polyreactivity screen of Harvey et al. (2022).
